- Tested on: Escherichia coli
- protocol_summary: Antibacterial activity against Escherichia coli OCC 122 after 18 hrs
- Assay type: functional
- run_parameters: OCC 122, 18 h
# MIC per record follows

Example results:
>  <smiles_repr>
OC[C@H]1O[C@H](Oc2cc(Cl)ccc2Oc2ccc(Cl)cc2Cl)[C@H](O)[C@@H](O)[C@@H]1O

>  <MIC>
2 to 8 µg/mL

$$$$
>  <smiles_repr>
OC[C@H]1O[C@@H](Oc2cc(Cl)ccc2Oc2ccc(Cl)cc2Cl)[C@H](O)[C@@H](O)[C@H]1O

>  <MIC>
0.5 to 32 µg/mL

$$$$
>  <smiles_repr>
O[C@@H]1[C@@H](Oc2cc(Cl)ccc2Oc2ccc(Cl)cc2Cl)OC[C@@H](O)[C@H]1O

>  <MIC>
0.5 to 4 µg/mL

$$$$

# query: MIC of entry OC[C@H]1O[C@H](Oc2cc(Cl)ccc2Oc2ccc(Cl)cc2Cl)[C@H](O)[C@@H](O)[C@H]1O
16 to 64 µg/mL

* * *

- System: Escherichia coli
- protocol_summary: Antibacterial activity against Escherichia coli ATCC 11775 after 18 hrs
- Type: functional
Reported MIC values are given for each entry in this list.

Sample answers from the record:
>  <smiles_repr>
OC[C@H]1O[C@@H](Oc2cc(Cl)ccc2Oc2ccc(Cl)cc2Cl)[C@H](O)[C@@H](O)[C@@H]1O

>  <reported_measurement>
8 to 64 µg/mL

$$$$
>  <smiles_repr>
O[C@@H]1[C@@H](Oc2cc(Cl)ccc2Oc2ccc(Cl)cc2Cl)OC[C@@H](O)[C@H]1O

>  <reported_measurement>
0.5 to 4 µg/mL

$$$$
>  <smiles_repr>
Oc1cc(Cl)ccc1Oc1ccc(Cl)cc1Cl

>  <reported_measurement>
0.1 to 0.5 µg/mL

$$$$

Then this compound:
Lab request: please report MIC under test system Escherichia coli for O[C@@H]1[C@H](Oc2cc(Cl)ccc2Oc2ccc(Cl)cc2Cl)OC[C@@H](O)[C@H]1O
8 to 32 µg/mL

* * *

- protocol_summary: Antibacterial activity against Salmonella enterica subspecies enterica serotype Nottingham NCTC 7832 after 18 hrs
- Format: functional, Salmonella enterica subsp. enterica serovar Nottingham
- run_parameters: NCTC 7832, 18 h
measured_metric: MIC

Use the examples below as a reference point.
>  <smiles_repr>
OC[C@H]1O[C@H](Oc2cc(Cl)ccc2Oc2ccc(Cl)cc2Cl)[C@H](O)[C@@H](O)[C@H]1O

>  <measured_metric>
MIC

>  <reported_measurement>
32 to 64 µg/mL

$$$$
>  <smiles_repr>
OC[C@H]1O[C@@H](Oc2cc(Cl)ccc2Oc2ccc(Cl)cc2Cl)[C@H](O)[C@@H](O)[C@H]1O

>  <measured_metric>
MIC

>  <reported_measurement>
2 to 16 µg/mL

$$$$
>  <smiles_repr>
O[C@@H]1[C@H](Oc2cc(Cl)ccc2Oc2ccc(Cl)cc2Cl)OC[C@@H](O)[C@H]1O

>  <measured_metric>
MIC

>  <reported_measurement>
32 to 64 µg/mL

$$$$

Quick one: MIC of O[C@@H]1[C@@H](Oc2cc(Cl)ccc2Oc2ccc(Cl)cc2Cl)OC[C@@H](O)[C@H]1O ?
2 to 8 µg/mL

# MIC lookup, item Oc1cc(Cl)ccc1Oc1ccc(Cl)cc1Cl
0.5 to 1 µg/mL

* * *

- Test system: Staphylococcus epidermidis
- protocol_summary: Antibacterial activity against Staphylococcus epidermidis 155 after 18 hrs
- Assay type: functional
- run_parameters: Staphylococcus epidermidis, 155, 18 h
measured_metric: MIC (µg/mL)

Use the examples below as a reference point.
>  <smiles_repr>
OC[C@H]1O[C@@H](Oc2cc(Cl)ccc2Oc2ccc(Cl)cc2Cl)[C@H](O)[C@@H](O)[C@H]1O

>  <measured_metric>
MIC

>  <reported_measurement>
0.5

$$$$
>  <smiles_repr>
Oc1cc(Cl)ccc1Oc1ccc(Cl)cc1Cl

>  <measured_metric>
MIC

>  <reported_measurement>
0.01

$$$$

a: OC[C@H]1O[C@H](Oc2cc(Cl)ccc2Oc2ccc(Cl)cc2Cl)[C@H](O)[C@@H](O)[C@@H]1O
b: O[C@@H]1[C@@H](Oc2cc(Cl)ccc2Oc2ccc(Cl)cc2Cl)OC[C@@H](O)[C@H]1O
Of a and b , whose reported MIC is the larger number? // output: label of the selected item
a
(a: 1 µg/mL, b: 0.5 µg/mL)

* * *

# maps each entry to its MIC
- Test system: Enterococcus faecium
- protocol_summary: Antibacterial activity against Enterococcus faecium ATCC 19434 after 18 hrs
- Format: functional
- run_parameters: ATCC 19434, 18 h

Previously resolved entries follow.
>  <smiles_repr>
OC[C@H]1O[C@H](Oc2cc(Cl)ccc2Oc2ccc(Cl)cc2Cl)[C@H](O)[C@@H](O)[C@H]1O

>  <reported_measurement>
> 256 µg/mL

$$$$
>  <smiles_repr>
OC[C@H]1O[C@@H](Oc2cc(Cl)ccc2Oc2ccc(Cl)cc2Cl)[C@H](O)[C@@H](O)[C@@H]1O

>  <reported_measurement>
> 256 µg/mL

$$$$

# next compound below
Given the compound O[C@@H]1[C@H](Oc2cc(Cl)ccc2Oc2ccc(Cl)cc2Cl)OC[C@@H](O)[C@H]1O , what is its reported MIC?
256 µg/mL

* * *

- protocol_summary: Antibacterial activity against Salmonella enterica subspecies enterica serotype Infantis OCC 2133 after 18 hrs
- Assay type: functional, Salmonella enterica subsp. enterica serovar Infantis
- run_parameters: OCC 2133, 18 h
measured_metric: MIC

>  <smiles_repr>
OC[C@H]1O[C@@H](Oc2cc(Cl)ccc2Oc2ccc(Cl)cc2Cl)[C@H](O)[C@@H](O)[C@H]1O

>  <MIC>
2 to 16 µg/mL

$$$$
>  <smiles_repr>
OC[C@H]1O[C@@H](Oc2cc(Cl)ccc2Oc2ccc(Cl)cc2Cl)[C@H](O)[C@@H](O)[C@@H]1O

>  <MIC>
16 to 32 µg/mL

$$$$
>  <smiles_repr>
O[C@@H]1[C@@H](Oc2cc(Cl)ccc2Oc2ccc(Cl)cc2Cl)OC[C@@H](O)[C@H]1O

>  <MIC>
2 to 8 µg/mL

$$$$
>  <smiles_repr>
Oc1cc(Cl)ccc1Oc1ccc(Cl)cc1Cl

>  <MIC>
0.5 to 1 µg/mL

$$$$

So what does the record say about MIC for OC[C@H]1O[C@H](Oc2cc(Cl)ccc2Oc2ccc(Cl)cc2Cl)[C@@H](O)[C@@H](O)[C@@H]1O ?
16 to 64 µg/mL

Look up MIC: OC[C@H]1O[C@H](Oc2cc(Cl)ccc2Oc2ccc(Cl)cc2Cl)[C@H](O)[C@@H](O)[C@@H]1O
2 to 8 µg/mL

Value lookup for MIC; key = OC[C@H]1O[C@H](Oc2cc(Cl)ccc2Oc2ccc(Cl)cc2Cl)[C@H](O)[C@@H](O)[C@H]1O
32 to 64 µg/mL

Can you look up the measured MIC of O[C@@H]1[C@H](Oc2cc(Cl)ccc2Oc2ccc(Cl)cc2Cl)OC[C@@H](O)[C@H]1O for me?
32 to 64 µg/mL

* * *

Quick list: MIC per entry.
- Tested on: Serratia marcescens
- protocol_summary: Antibacterial activity against Serratia marcescens OCC 217 after 18 hrs
- Assay type: functional
- run_parameters: OCC 217, 18 h

Worked set:
>  <compound>
Oc1cc(Cl)ccc1Oc1ccc(Cl)cc1Cl [TRICLOSAN]

>  <reported_measurement>
64 µg/mL

$$$$
>  <compound>
OC[C@H]1O[C@H](Oc2cc(Cl)ccc2Oc2ccc(Cl)cc2Cl)[C@H](O)[C@@H](O)[C@H]1O

>  <reported_measurement>
> 256 µg/mL

$$$$
>  <compound>
O[C@@H]1[C@H](Oc2cc(Cl)ccc2Oc2ccc(Cl)cc2Cl)OC[C@@H](O)[C@H]1O

>  <reported_measurement>
> 256 µg/mL

$$$$

Attention now shifts to the item below.
Which MIC is listed for O[C@@H]1[C@@H](Oc2cc(Cl)ccc2Oc2ccc(Cl)cc2Cl)OC[C@@H](O)[C@H]1O ?
> 256 µg/mL

* * *

- Test system: Streptococcus pneumoniae
- protocol_summary: Antibacterial activity against Streptococcus pneumoniae 6305 after 18 hrs
- Assay type: functional
- run_parameters: Streptococcus pneumoniae, 6305, 18 h
measured_metric: MIC (µg/mL)

Previously resolved entries follow.
>  <smiles_repr>
Oc1cc(Cl)ccc1Oc1ccc(Cl)cc1Cl

>  <MIC [µg/mL]>
1

$$$$
>  <smiles_repr>
OC[C@H]1O[C@H](Oc2cc(Cl)ccc2Oc2ccc(Cl)cc2Cl)[C@@H](O)[C@@H](O)[C@@H]1O

>  <MIC [µg/mL]>
64

$$$$
>  <smiles_repr>
O[C@@H]1[C@@H](Oc2cc(Cl)ccc2Oc2ccc(Cl)cc2Cl)OC[C@@H](O)[C@H]1O

>  <MIC [µg/mL]>
64

$$$$
>  <smiles_repr>
OC[C@H]1O[C@H](Oc2cc(Cl)ccc2Oc2ccc(Cl)cc2Cl)[C@H](O)[C@@H](O)[C@H]1O

>  <MIC [µg/mL]>
128

$$$$
>  <smiles_repr>
OC[C@H]1O[C@@H](Oc2cc(Cl)ccc2Oc2ccc(Cl)cc2Cl)[C@H](O)[C@@H](O)[C@H]1O

>  <MIC [µg/mL]>
128

$$$$

1: OC[C@H]1O[C@@H](Oc2cc(Cl)ccc2Oc2ccc(Cl)cc2Cl)[C@H](O)[C@@H](O)[C@@H]1O
2: OC[C@H]1O[C@H](Oc2cc(Cl)ccc2Oc2ccc(Cl)cc2Cl)[C@H](O)[C@@H](O)[C@@H]1O
3: O[C@@H]1[C@H](Oc2cc(Cl)ccc2Oc2ccc(Cl)cc2Cl)OC[C@@H](O)[C@H]1O
Order the records, beginning with the lowest MIC and ending with the highest. Give the labels in the order specified.
2, 3, 1
(2: 32 µg/mL, 3: 64 µg/mL, 1: 128 µg/mL)

Hello, the source for this data is ChEMBL document CHEMBL4325893, in case you need it.
